These data points were gathered from patent US20070286822A1.

Tested on: IL-5
experimentalDetails: TH2 cytokines: PBMC, PHA, IL-5
Assay type: cell-based
conditionSummary: 24 h, read-out: IL-5 (anti-inflammatory data, TH2 cytokine)
recordedMetric: pIC50
Here pIC50 is given on a logarithmic scale as minus log10 of the concentration in mol/L.

# assay system IL-5: give pIC50 of Cc1ccc(B(OC(=O)c2ncccc2O)c2ccc(C)c(Cl)c2)cc1Cl
5.03

###

recordedMetric: melting point

Specify reported melting point for the compound shown: COc1ccc2c(c1)COB2O [C7, 5-methoxybenzo[c][1,2]oxaborol-1(3H)-ol]
102 to 104 °C

Specify reported melting point for the compound shown: OB1OCc2ccc(Sc3ccc(F)cc3)cc21
135 to 138 °C

Specify reported melting point for the compound shown: OB1OCc2ccc(-n3ccc4ccccc43)cc21
135 to 140 °C

Specify reported melting point for the compound shown: OB1OCc2ccc(Oc3ccc(C(F)(F)F)cc3)cc21
98 to 105 °C

Specify reported melting point for the compound shown: OB1OCc2cc3c(cc21)COB3O
> 250 °C

Specify reported melting point for the compound shown: OB1OCc2ccc(N3CCOCC3)cc21
128 to 132 °C

Specify reported melting point for the compound shown: Fc1ccc2c(c1)COB2c1ccccc1
90 to 99 °C

Specify reported melting point for the compound shown: OB1OCc2ccc(Oc3ccc(Cl)cc3)cc21
119 to 130 °C

Specify reported melting point for the compound shown: Fc1ccc(B2OCc3ccccc32)cc1
53 to 55 °C

Specify reported melting point for the compound shown: CN(c1ccc2c(c1)COB2O)S(=O)(=O)c1ccccc1
85 to 95 °C

Specify reported melting point for the compound shown: OB1OCc2ccc(Oc3ccc(OC(F)(F)F)cc3)cc21
97 to 101 °C

Specify reported melting point for the compound shown: OB1OCc2ccc(-n3cc(Sc4ccccc4)c4cc(Cl)ccc43)cc21
145 to 151 °C

Specify reported melting point for the compound shown: O=S(=O)(c1ccccc1)N(c1ccc2c(c1)COB2O)S(=O)(=O)c1ccccc1
142 to 152 °C

Specify reported melting point for the compound shown: OCc1cccc2c1B(O)OC2
241 to 250 °C

Specify reported melting point for the compound shown: OB1OCc2cc3c(cc21)OCO3
185 to 189 °C

Specify reported melting point for the compound shown: O=C(COc1ccc2c(c1)COB2O)N1CCCCC1
158 to 163 °C

Specify reported melting point for the compound shown: Cc1cccc(B2OCc3cc(F)ccc32)c1
48 to 49 °C

Specify reported melting point for the compound shown: Fc1ccc2c(c1)COB2c1cccc(Cl)c1
112 to 114 °C

Specify reported melting point for the compound shown: Nc1cc2c(cc1F)COB2O
142 to 145 °C

Specify reported melting point for the compound shown: C(=Cc1ccccc1)B1OCc2ccccc21 [10a, 1,3-Dihydro-1-styryl-2,1-benzoxaborole]
57 to 59 °C

Specify reported melting point for the compound shown: N#Cc1ccc(Oc2cccc3c2B(O)OC3)cc1
148 to 153 °C

Specify reported melting point for the compound shown: COc1ccc2c(c1)c(Sc1ccccc1)cn2-c1ccc2c(c1)B(O)OC2
135 to 141 °C

Specify reported melting point for the compound shown: CSc1ccc(Sc2ccc3c(c2)B(O)OC3)cc1
117 to 120 °C

Specify reported melting point for the compound shown: COc1ccc(Oc2ccc3c(c2)B(O)OC3)cc1
126 to 129 °C
